compounds and their reported pIC50
# System: HUVEC
# PROTOCOL DETAILS: Antiproliferative activity against HUVEC after 72 hrs by WST8 assay
# Type: functional, cell-based
# CONDITION SET: Homo sapiens
Please express pIC50 as -log10 of the molar concentration.

COMPOUND	pIC50
C[C@]12CCC3=CC4=C(CCCC4=O)O[C@H]3[C@@H]1CC[C@@H]2c1ccc2ccncc2c1	7.46
CN(C)C1CC=C(/C=C2/CC[C@@]3(C)[C@@H](CC[C@@H]3c3ccc4ccncc4c3)C2)CC1 (some centres undefined)	5.70
CN(C)c1ccc(/C=C2/CC[C@@]3(C)[C@@H](CC[C@@H]3c3ccc4ccncc4c3)C2)cc1	4.82

Then this compound:
Read the entry `C[C@]12C=CC3=CC4=C(CCCC4=O)O[C@H]3[C@@H]1CC[C@@H]2c1ccc2ccncc2c1` and write its reported pIC50. 7.00

* * *

# System: KB 3-1
# PROTOCOL DETAILS: Selectivity index, ratio of IC50 for human KB3-1 cells to IC50 for HUVEC
ENDPOINT: Ratio IC50
Write the number on its own, no unit after it.

COMPOUND	OBSERVED VALUE
CN(C)C1CC=C(/C=C2/CC[C@@]3(C)[C@@H](CC[C@@H]3c3ccc4ccncc4c3)C2)CC1 (some centres undefined)	9

State Ratio IC50 (KB 3-1) of `CN(C)c1ccc(/C=C2/CC[C@@]3(C)[C@@H](CC[C@@H]3c3ccc4ccncc4c3)C2)cc1` . 1.5

Origin of measurements: ChEMBL document CHEMBL2146452
